All figures here come from ChEMBL document CHEMBL4229437.

- Study Target: DNA topoisomerase 2-beta (Homo sapiens) (UniProt Q02880)
- Sequence (Q02880 whole entry): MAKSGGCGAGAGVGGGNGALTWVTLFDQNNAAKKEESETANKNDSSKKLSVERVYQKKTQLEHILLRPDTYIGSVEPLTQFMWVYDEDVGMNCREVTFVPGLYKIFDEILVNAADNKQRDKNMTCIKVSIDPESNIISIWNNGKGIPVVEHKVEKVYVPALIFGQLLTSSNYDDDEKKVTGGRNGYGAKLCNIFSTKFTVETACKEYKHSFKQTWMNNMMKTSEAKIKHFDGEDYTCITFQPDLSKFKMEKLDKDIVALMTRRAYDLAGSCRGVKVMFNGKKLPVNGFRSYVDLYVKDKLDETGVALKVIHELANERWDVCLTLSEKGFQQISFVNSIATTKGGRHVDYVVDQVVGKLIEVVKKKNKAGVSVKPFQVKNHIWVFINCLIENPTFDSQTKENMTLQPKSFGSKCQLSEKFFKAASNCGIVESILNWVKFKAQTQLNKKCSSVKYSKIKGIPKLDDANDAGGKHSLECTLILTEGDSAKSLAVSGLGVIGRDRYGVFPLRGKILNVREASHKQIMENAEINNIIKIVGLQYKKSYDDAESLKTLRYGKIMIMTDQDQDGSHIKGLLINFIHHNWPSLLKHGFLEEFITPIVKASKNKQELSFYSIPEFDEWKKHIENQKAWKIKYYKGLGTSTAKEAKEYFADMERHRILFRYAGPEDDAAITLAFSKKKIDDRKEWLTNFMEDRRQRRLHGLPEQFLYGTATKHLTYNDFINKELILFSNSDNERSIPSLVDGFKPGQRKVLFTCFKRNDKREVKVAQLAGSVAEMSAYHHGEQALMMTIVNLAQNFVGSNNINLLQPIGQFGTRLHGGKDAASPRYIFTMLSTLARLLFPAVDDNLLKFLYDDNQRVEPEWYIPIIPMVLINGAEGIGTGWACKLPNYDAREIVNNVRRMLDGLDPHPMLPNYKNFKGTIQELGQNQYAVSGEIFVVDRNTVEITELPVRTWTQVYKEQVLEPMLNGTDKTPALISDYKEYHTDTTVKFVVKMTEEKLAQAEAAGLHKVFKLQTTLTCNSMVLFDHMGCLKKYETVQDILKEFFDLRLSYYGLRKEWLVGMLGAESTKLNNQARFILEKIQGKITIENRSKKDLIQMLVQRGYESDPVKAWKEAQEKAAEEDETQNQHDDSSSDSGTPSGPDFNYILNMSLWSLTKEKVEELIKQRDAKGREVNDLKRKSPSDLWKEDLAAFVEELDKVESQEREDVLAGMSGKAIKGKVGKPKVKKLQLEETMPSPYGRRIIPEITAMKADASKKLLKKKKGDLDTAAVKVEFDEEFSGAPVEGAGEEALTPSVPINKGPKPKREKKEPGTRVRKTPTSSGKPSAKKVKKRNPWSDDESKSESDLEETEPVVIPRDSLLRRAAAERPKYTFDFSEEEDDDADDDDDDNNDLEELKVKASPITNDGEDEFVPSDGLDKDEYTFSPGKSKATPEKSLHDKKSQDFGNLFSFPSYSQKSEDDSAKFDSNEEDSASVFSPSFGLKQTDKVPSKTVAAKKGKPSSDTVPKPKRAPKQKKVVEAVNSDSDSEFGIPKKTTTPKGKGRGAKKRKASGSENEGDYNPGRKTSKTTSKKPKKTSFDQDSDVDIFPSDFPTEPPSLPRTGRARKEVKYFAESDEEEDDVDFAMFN
- Experiment Description: Inhibition of recombinant human topoisomerase-2beta expressed in Saccharomyces cerevisiae assessed as increase in total DNA cleavage at 25 uM using supercoiled pBR322 DNA as substrate incubated for 6 mins measured after 30 mins by ethidium bromide staining based agarose gel electrophoresis method relative to etoposide
Observable: fold change (FC)
Write the value as a bare number.

// solved cases for fold change (FC) follow
>  <Mol Smiles>
COc1cc([C@@H]2c3cc4c(cc3[C@@H](NC(=O)CNCCCNCCCNCCCN)[C@H]3COC(=O)[C@H]23)OCO4)cc(OC)c1O

>  <fold change (FC)>
6.03

$$$$
>  <Mol Smiles>
CNCCCNCCCCNCCCNCC(=O)N[C@@H]1c2cc3c(cc2[C@@H](c2cc(OC)c(O)c(OC)c2)[C@H]2C(=O)OC[C@@H]21)OCO3

>  <fold change (FC)>
6.51

$$$$
>  <Mol Smiles>
COc1cc([C@@H]2c3cc4c(cc3[C@@H](NC(=O)CNCCCNCCCCN)[C@H]3COC(=O)[C@H]23)OCO4)cc(OC)c1O

>  <fold change (FC)>
6.8

$$$$

Provide fold change (FC) value for the following molecule: COc1cc([C@@H]2c3cc4c(cc3[C@@H](NC(=O)CNCCCOCCCCOCCCN)[C@H]3COC(=O)[C@H]23)OCO4)cc(OC)c1O
3.13

Determine its reported fold change (FC): COc1cc([C@@H]2c3cc4c(cc3[C@@H](NC(=O)CNCCCNCCCCNCCCN)[C@H]3COC(=O)[C@H]23)OCO4)cc(OC)c1O
7.85

Indicate its recorded fold change (FC); the molecule in question is COc1cc([C@@H]2c3cc4c(cc3[C@@H](NC(=O)CNCCCNCCNCCCN)[C@H]3COC(=O)[C@H]23)OCO4)cc(OC)c1O
4.54

* * *

- Study Target: DNA topoisomerase 2-alpha (Homo sapiens) (UniProt P11388)
- Sequence (P11388 whole entry): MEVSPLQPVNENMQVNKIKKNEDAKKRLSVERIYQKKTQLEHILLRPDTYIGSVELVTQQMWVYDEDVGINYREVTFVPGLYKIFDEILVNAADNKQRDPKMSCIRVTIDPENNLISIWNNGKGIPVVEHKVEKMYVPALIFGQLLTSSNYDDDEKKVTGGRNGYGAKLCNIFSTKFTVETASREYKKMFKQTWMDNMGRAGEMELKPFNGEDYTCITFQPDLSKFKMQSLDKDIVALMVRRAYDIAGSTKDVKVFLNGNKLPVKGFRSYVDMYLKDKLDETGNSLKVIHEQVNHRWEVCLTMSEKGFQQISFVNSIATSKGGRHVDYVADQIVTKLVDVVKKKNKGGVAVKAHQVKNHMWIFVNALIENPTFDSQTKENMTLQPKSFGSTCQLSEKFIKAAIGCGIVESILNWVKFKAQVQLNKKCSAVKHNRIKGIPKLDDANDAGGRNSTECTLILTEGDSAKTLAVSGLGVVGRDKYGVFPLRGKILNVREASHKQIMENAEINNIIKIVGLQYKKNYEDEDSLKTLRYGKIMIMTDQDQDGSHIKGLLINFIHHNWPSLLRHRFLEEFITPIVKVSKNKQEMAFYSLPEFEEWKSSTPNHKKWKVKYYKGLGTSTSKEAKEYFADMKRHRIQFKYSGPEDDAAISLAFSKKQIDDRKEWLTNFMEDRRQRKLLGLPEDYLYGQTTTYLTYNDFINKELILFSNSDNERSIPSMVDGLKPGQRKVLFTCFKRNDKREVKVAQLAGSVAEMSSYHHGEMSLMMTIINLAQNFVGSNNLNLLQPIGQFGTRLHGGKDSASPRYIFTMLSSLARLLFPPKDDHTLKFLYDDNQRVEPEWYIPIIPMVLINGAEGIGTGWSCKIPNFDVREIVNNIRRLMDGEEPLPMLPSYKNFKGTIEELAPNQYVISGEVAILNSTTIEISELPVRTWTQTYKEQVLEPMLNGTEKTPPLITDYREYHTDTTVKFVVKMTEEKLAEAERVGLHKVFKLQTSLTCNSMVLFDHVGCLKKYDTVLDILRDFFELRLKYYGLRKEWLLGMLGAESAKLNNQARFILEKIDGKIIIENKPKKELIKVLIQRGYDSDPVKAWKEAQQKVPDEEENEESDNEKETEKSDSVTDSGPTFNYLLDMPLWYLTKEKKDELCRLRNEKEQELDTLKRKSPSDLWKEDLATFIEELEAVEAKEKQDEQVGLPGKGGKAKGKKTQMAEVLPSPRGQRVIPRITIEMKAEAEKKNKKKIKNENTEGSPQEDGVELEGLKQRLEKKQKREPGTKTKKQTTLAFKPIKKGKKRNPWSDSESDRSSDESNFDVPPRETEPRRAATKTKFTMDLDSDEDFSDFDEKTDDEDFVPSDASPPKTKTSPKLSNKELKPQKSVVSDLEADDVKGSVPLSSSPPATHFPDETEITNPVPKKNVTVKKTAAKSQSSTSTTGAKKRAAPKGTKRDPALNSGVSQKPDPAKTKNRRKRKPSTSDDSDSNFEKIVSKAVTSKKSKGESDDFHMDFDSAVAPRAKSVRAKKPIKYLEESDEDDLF
- Experiment Description: Inhibition of recombinant human topoisomerase-2alpha expressed in Saccharomyces cerevisiae assessed as increase in double-stranded DNA cleavage at 25 uM using supercoiled pBR322 DNA as substrate incubated for 6 mins measured after 30 mins by ethidium bromide staining based agarose gel electrophoresis method relative to etoposide
Observable: fold change (FC)
Lab note: write the figure by itself, no unit.

Some molecules with recorded fold change (FC):
>  <Mol Smiles>
COc1cc([C@@H]2c3cc4c(cc3[C@@H](NC(=O)CNCCCNCCCCNCCCN)[C@H]3COC(=O)[C@H]23)OCO4)cc(OC)c1O

>  <Observable>
fold change (FC)

>  <Test Value>
2.48

$$$$
>  <Mol Smiles>
COc1cc([C@@H]2c3cc4c(cc3[C@@H](NC(=O)CNCCCNCCCCN)[C@H]3COC(=O)[C@H]23)OCO4)cc(OC)c1O

>  <Observable>
fold change (FC)

>  <Test Value>
1.52

$$$$
>  <Mol Smiles>
CNCCCNCCCCNCCCNCC(=O)N[C@@H]1c2cc3c(cc2[C@@H](c2cc(OC)c(O)c(OC)c2)[C@H]2C(=O)OC[C@@H]21)OCO3

>  <Observable>
fold change (FC)

>  <Test Value>
2.16

$$$$

Give the reported fold change (FC) for this molecule. COc1cc([C@@H]2c3cc4c(cc3[C@@H](NC(=O)CNCCCOCCCCOCCCN)[C@H]3COC(=O)[C@H]23)OCO4)cc(OC)c1O
0.9

Assign fold change (FC) to the following record: COc1cc([C@@H]2c3cc4c(cc3[C@@H](NC(=O)CNCCCNCCCNCCCN)[C@H]3COC(=O)[C@H]23)OCO4)cc(OC)c1O
2.13

Give fold change (FC) for the following molecule: COc1cc([C@@H]2c3cc4c(cc3[C@@H](NC(=O)CNCCCNCCNCCCN)[C@H]3COC(=O)[C@H]23)OCO4)cc(OC)c1O
1.93
